target: full-length human ATR protein (Homo sapiens (Human)); assay: Binding assay ATR (TR-FRET tracer displacement); conditions: tracer A, TR-FRET; read-out: ATR binding (tracer A) IC50
Sequence (Q13535 other isoform, or with tags, fused parts or gaps): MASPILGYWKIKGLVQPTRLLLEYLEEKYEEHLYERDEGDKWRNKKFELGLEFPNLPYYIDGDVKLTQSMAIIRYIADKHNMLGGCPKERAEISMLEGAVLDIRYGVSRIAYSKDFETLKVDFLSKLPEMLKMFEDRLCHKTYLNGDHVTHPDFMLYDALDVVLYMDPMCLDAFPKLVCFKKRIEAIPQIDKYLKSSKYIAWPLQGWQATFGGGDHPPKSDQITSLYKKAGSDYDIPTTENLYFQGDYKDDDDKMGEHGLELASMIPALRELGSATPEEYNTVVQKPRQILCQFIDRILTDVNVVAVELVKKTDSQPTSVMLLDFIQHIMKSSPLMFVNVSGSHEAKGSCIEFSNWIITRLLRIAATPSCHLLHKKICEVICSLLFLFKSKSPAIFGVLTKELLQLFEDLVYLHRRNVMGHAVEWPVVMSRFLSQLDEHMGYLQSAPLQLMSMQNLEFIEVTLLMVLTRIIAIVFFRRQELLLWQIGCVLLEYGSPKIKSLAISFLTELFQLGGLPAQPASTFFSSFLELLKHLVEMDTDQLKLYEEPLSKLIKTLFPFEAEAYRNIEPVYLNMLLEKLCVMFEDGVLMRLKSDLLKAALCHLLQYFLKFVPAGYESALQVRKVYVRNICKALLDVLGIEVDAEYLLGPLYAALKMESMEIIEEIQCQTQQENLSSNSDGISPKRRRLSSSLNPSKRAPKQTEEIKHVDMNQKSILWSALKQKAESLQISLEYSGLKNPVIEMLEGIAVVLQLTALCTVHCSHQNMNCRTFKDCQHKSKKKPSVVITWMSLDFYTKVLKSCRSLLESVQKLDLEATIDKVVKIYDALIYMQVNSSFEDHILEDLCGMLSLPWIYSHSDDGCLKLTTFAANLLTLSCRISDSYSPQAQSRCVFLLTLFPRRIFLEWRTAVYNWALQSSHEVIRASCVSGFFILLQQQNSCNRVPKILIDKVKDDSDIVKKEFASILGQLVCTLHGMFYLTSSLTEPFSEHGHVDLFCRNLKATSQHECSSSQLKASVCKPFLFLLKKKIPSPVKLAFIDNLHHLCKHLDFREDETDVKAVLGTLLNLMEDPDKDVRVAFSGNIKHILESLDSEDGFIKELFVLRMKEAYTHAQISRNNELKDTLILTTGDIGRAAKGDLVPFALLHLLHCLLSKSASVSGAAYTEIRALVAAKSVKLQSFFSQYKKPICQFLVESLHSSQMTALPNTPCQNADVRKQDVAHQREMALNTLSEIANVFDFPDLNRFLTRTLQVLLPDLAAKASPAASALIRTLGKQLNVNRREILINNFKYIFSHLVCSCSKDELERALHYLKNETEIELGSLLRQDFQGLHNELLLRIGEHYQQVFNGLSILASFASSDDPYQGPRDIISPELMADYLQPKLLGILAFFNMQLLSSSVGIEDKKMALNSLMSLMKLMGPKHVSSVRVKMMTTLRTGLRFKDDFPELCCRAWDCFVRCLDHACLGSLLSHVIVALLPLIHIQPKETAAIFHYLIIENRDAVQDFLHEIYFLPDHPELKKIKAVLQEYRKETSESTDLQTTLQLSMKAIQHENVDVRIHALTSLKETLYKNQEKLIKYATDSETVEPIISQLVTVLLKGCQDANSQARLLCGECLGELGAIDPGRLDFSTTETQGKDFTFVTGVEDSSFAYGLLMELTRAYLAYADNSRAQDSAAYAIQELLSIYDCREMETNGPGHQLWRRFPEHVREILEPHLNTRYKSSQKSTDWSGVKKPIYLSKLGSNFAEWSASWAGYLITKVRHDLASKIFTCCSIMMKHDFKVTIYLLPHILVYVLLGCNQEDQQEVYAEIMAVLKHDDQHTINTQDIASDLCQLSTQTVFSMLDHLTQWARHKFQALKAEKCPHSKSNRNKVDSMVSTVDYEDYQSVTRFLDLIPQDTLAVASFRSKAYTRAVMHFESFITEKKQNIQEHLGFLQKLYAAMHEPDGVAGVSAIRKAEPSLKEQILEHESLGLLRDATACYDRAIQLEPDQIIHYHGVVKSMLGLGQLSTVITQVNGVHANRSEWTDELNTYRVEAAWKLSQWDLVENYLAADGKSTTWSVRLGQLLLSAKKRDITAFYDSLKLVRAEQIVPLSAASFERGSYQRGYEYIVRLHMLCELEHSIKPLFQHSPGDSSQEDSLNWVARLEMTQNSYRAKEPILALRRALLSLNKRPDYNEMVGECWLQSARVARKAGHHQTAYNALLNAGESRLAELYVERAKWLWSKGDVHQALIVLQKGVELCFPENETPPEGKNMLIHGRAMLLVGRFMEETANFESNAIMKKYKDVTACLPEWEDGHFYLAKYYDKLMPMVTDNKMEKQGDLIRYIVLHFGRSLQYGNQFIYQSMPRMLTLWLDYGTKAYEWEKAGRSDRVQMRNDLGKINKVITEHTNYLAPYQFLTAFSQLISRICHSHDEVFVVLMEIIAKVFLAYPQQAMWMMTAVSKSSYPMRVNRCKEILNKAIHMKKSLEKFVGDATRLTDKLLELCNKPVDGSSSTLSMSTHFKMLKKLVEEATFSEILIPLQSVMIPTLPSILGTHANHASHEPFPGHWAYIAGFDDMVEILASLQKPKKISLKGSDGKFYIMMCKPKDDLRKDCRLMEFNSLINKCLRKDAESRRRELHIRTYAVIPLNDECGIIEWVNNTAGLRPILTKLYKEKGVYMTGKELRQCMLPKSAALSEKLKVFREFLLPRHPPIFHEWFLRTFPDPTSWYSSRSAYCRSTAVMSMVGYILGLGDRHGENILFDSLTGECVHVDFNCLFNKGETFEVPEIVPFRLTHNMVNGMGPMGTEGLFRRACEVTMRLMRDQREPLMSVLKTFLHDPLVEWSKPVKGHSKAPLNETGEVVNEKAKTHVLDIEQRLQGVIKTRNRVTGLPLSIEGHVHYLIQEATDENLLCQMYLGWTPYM
Sequence (Q8WXE1 other isoform, or with tags, fused parts or gaps partner): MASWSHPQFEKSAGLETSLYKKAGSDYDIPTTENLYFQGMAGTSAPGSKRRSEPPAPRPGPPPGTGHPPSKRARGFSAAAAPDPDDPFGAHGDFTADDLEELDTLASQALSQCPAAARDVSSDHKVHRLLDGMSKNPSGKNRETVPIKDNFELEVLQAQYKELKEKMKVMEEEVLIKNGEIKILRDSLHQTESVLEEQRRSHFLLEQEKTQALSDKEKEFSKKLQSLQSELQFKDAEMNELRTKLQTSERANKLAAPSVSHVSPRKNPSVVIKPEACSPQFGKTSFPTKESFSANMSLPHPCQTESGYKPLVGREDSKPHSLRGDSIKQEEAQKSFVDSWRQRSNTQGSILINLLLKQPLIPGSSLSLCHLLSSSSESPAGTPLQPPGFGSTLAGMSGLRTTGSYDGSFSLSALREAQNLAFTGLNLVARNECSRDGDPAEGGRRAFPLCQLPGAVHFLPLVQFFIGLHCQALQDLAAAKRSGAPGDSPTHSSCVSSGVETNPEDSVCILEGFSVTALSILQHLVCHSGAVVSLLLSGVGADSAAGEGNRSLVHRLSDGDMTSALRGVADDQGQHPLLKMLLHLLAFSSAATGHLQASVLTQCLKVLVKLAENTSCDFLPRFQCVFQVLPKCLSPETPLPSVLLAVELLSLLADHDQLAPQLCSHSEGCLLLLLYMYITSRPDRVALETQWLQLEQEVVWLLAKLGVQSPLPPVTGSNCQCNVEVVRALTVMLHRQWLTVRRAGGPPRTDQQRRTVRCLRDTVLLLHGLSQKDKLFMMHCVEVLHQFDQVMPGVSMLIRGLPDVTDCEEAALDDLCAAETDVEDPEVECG
Counter-ions that a name gives are not always drawn.
Would you mind telling me the reported IC50 of each entry?

# IC50 lookup, item FC(F)(F)c1ccccc1-c1cc(N2CCOCC2)nc2c(-c3ccn[nH]3)nccc12
0.0216 µM

# IC50 lookup, item COc1cnccc1-c1cc(N2CCOC[C@H]2C)nc2c(-c3ccn[nH]3)nccc12
0.0755 µM

# IC50 lookup, item Cc1cc(-c2cc(N3CCOCC3)nc3c(-c4ccn[nH]4)nccc23)n[nH]1
0.176 µM

# IC50 lookup, item CC[S+]([O-])c1cc(N2CCOCC2)nc2c(-c3ccn[nH]3)nccc12 (centres unmarked)
0.0714 µM

# IC50 lookup, item C[C@@H]1COCCN1c1cc(-c2ccnn2CC(F)(F)F)c2ccnc(-c3ccn[nH]3)c2n1
0.0801 µM

# IC50 lookup, item C[C@@H]1COCCN1c1cc(-c2ccc(N3CCNCC3)cc2F)c2ccnc(-c3ccn[nH]3)c2n1
0.0143 µM

# IC50 lookup, item C[C@@H]1COCCN1c1cc(S(C)(=O)=O)c2ccnc(-c3ccn[nH]3)c2n1
0.0198 µM

# IC50 lookup, item Clc1cc(Cl)cc(-c2cc(N3CCOCC3)nc3c(-c4ccn[nH]4)nccc23)c1
0.174 µM

# IC50 lookup, item CC(C)n1nccc1-c1cc(N2CCOC[C@H]2C)nc2c(-c3ccn[nH]3)nccc12
0.0136 µM

# IC50 lookup, item CC(C)c1ccc(-c2cc(N3CCOCC3)nc3c(-c4ccn[nH]4)nccc23)cc1
0.169 µM

# IC50 lookup, item Cc1sccc1-c1cc(N2CCOC[C@H]2C)nc2c(-c3ccn[nH]3)nccc12
0.0101 µM

# IC50 lookup, item C[C@@H]1COCCN1c1cc(-c2cccc(S(C)(=O)=O)c2)c2ccnc(-c3cc[nH]n3)c2n1
0.0176 µM

# IC50 lookup, item Cc1cc(-c2cc(N3CCOC[C@H]3C)nc3c(-c4ccn[nH]4)nccc23)cs1
0.0292 µM

# IC50 lookup, item C[C@@H]1COCCN1c1cc(C2=CCCN(C)C2)c2ccnc(-c3ccn[nH]3)c2n1
0.0959 µM

# IC50 lookup, item Fc1cccc(-c2cc(N3CCOCC3)nc3c(-c4ccn[nH]4)nccc23)c1F
0.0264 µM

# IC50 lookup, item C[C@@H]1COCCN1c1cc(C2CC[S+]([O-])CC2)c2ccnc(-c3ccn[nH]3)c2n1 (some centres unmarked)
0.0113 µM

# IC50 lookup, item COCc1noc(C)c1-c1cc(N2CCOC[C@H]2C)nc2c(-c3ccn[nH]3)nccc12
0.0329 µM

# IC50 lookup, item c1cc(-c2nccc3c(N4C[C@H]5COC[C@H]5C4)cc(N4CCOCC4)nc23)[nH]n1
0.649 µM

# IC50 lookup, item COc1cc(N2CCOC[C@H]2C)nc2c(-c3cc[nH]n3)nccc12
0.192 µM

# IC50 lookup, item C/C=C/c1cc(N2CCOCC2)nc2c(-c3ccn[nH]3)nccc12
0.0344 µM

# IC50 lookup, item C[C@@H]1COCCN1c1cc(-c2ccncc2F)c2ccnc(-c3ccn[nH]3)c2n1
0.0317 µM

# IC50 lookup, item C[C@@H]1CN[C@@H](C)CN1c1cc(N2CCOCC2)nc2c(-c3ccn[nH]3)nccc12 (relative stereo)
0.377 µM

# IC50 lookup, item C[C@@H]1COCCN1c1cc(-c2ccc(S(C)(=N)=O)cc2)c2ccnc(-c3ccn[nH]3)c2n1 (some centres unmarked)
0.0228 µM

# IC50 lookup, item CC(C)Oc1cc(N2CCOCC2)nc2c(-c3ccc[nH]3)nccc12
0.339 µM

# IC50 lookup, item c1cc2ccc(N3CCOCC3)nc2c(-c2cc[nH]n2)n1 [Example 61, hydrochloride]
0.709 µM

# IC50 lookup, item Fc1cccc(-c2cc(N3CCOCC3)nc3c(-c4ccn[nH]4)nccc23)c1
0.0592 µM

# IC50 lookup, item O=S1(=Nc2cc(N3CCOCC3)nc3c(-c4ccn[nH]4)nccc23)CCCCC1
0.0468 µM

# IC50 lookup, item CC(C)Cn1nccc1-c1cc(N2CCOC[C@H]2C)nc2c(-c3ccn[nH]3)nccc12
0.0357 µM

# IC50 lookup, item Cc1ccc2c(c1)cc(-c1cc(N3CCOCC3)nc3c(-c4ccn[nH]4)nccc13)n2C(=O)OC(C)(C)C
2.99 µM

# IC50 lookup, item C[C@@H]1COCCN1c1cc(C(N)=O)c2ccnc(-c3cc[nH]n3)c2n1
0.509 µM

# IC50 lookup, item Cc1cc(-c2cc(N3CCOC[C@H]3C)nc3c(-c4ccn[nH]4)nccc23)cnc1C
0.0391 µM

# IC50 lookup, item COc1ncc(C(F)(F)F)cc1-c1cc(N2CCOCC2)nc2c(-c3ccn[nH]3)nccc12
0.424 µM
